Read-out: Plasminogen activator inhibitor-1 (PAI1), SERPINE1 (gene 5054)
Assay: BSK_MyoF_PAI1: BioMAP Diversity Plus: MyoF Assay for Plasminogen activator inhibitor-1 (PAI1) Biomarker Activity (AID 2284256)
Details: primary human lung fibroblasts
Calls of active or inactive are those of the source. The calls were made as follows: active = hit-call score of the fitted dose curve at least 0.9, where 1 is the maximum; inactive = score below 0.9.
// allowed return values: 1 (yes) for active, 0 (no) for inactive

Example cases with answers are listed next.
Brc1nc2ccccc2s1 0 (no)
CCN(CC)c1ccc2c(c1)Oc1cc(N(CC)CC)ccc1C21OC(=O)c2ccccc21 0 (no)
O=C(O)C(F)(F)C(F)(F)C(F)(F)OC(F)(F)F 0 (no)

Query: Write down the call the test reported for this compound. Item: O=C1c2c(O)ccc(Nc3ccc(CCO)cc3)c2C(=O)c2c([N+](=O)[O-])ccc(O)c21
Reply: 1 (yes)

Query: Try the compound CNS(=O)(=O)C(F)(F)C(F)(F)C(F)(F)C(F)(F)C(F)(F)C(F)(F)C(F)(F)C(F)(F)F
Reply: 0 (no)

Every entry's value here was drawn from PubChem BioAssay (EPA / NIEHS).
